System: Escherichia coli
Test: Antibacterial activity against CTX-M group 9 enzyme producing Escherichia coli isolates by broth microdilution method
Assay type: functional
# MIC90 listing for each entry below

Request: Could you please provide reported MIC90 for Cc1nnc(SCC2=C(C(=O)O)N3C(=O)[C@@H](NC(=O)Cn4cnnn4)[C@H]3SC2)s1 [CEFAZOLIN] ? Thanks!
Result: > 16 µg/mL

Request: Could you please provide reported MIC90 for NC[C@H]1O[C@H](O[C@H]2[C@H](O)[C@@H](O[C@H]3O[C@H](CO)[C@@H](O)[C@H](N)[C@H]3O)[C@H](N)C[C@@H]2N)[C@H](N)C[C@@H]1O [TOBRAMYCIN] ? Thanks!
Result: > 8 µg/mL

Others:
Request: Could you please provide reported MIC90 for CC1(C)S[C@@H]2[C@H](NC(=O)[C@H](N)c3ccccc3)C(=O)N2[C@H]1C(=O)O [AMPICILLIN] ? Thanks!
Result: > 16 µg/mL

Request: Could you please provide reported MIC90 for CO/N=C(\C(=O)N[C@@H]1C(=O)N2C(C(=O)O)=C(COC(N)=O)CS[C@H]12)c1ccco1 [CEFUROXIME] ? Thanks!
Result: > 16 µg/mL

Request: Could you please provide reported MIC90 for C[C@@H](O)[C@H]1C(=O)N2C(C(=O)O)=C(S[C@@H]3CN[C@H](C(=O)N(C)C)C3)[C@H](C)[C@H]12 [MEROPENEM] ? Thanks!
Result: ≤ 1 µg/mL

Request: Could you please provide reported MIC90 for NCC[C@H](O)C(=O)N[C@@H]1C[C@H](N)[C@@H](O[C@H]2O[C@H](CN)[C@@H](O)[C@H](O)[C@H]2O)[C@H](O)[C@H]1O[C@H]1O[C@H](CO)[C@@H](O)[C@H](N)[C@H]1O [AMIKACIN] ? Thanks!
Result: 16 µg/mL

Request: Could you please provide reported MIC90 for CCN1CCN(C(=O)N[C@@H](C(=O)N[C@@H]2C(=O)N3[C@@H]2SC(C)(C)[C@@H]3C(=O)O)c2ccccc2)C(=O)C1=O [PIPERACILLIN] ? Thanks!
Result: > 64 µg/mL

Request: Could you please provide reported MIC90 for CCn1cc(C(=O)O)c(=O)c2cc(F)c(N3CCNCC3)cc21 [NORFLOXACIN] ? Thanks!
Result: > 8 µg/mL

Request: Could you please provide reported MIC90 for CC(=O)OCC1=C(C(=O)O)N2C(=O)[C@@H](NC(=O)Cc3cccs3)[C@H]2SC1 [CEPHALOTHIN] ? Thanks!
Result: > 16 µg/mL

Request: Could you please provide reported MIC90 for CC1(C)S[C@@H]2[C@H](NC(=O)C(C(=O)O)c3ccsc3)C(=O)N2[C@H]1C(=O)O (single isomer, unassigned) [TICARCILLIN] ? Thanks!
Result: > 64 µg/mL

Request: Could you please provide reported MIC90 for CC(C)(O/N=C(\C(=O)N[C@@H]1C(=O)N2C(C(=O)[O-])=C(C[n+]3ccccc3)CS[C@H]12)c1csc(N)n1)C(=O)O [CEFTAZIDIME] ? Thanks!
Result: > 16 µg/mL

Request: Could you please provide reported MIC90 for "CO/N=C(\C(=O)N[C@@H]1C(=O)N2C(C(=O)[O-])=C(C[N+]3(C)CCCC3)CS[C@H]12)c1csc(N)n1" ? Thanks!
Result: > 16 µg/mL

Request: Could you please provide reported MIC90 for CO/N=C(\C(=O)N[C@@H]1C(=O)N2C(C(=O)O)=C(CSc3nc(=O)c(O)nn3C)CS[C@H]12)c1csc(N)n1 (stereo in doubt) [CEFTRIAXONE] ? Thanks!
Result: > 32 µg/mL

Request: Could you please provide reported MIC90 for O=C(O)c1cn(C2CC2)c2cc(N3CCNCC3)c(F)cc2c1=O [CIPROFLOXACIN] ? Thanks!
Result: > 2 µg/mL
